# Tested on: MDA-MB-435
# Assay comment: NCI tumour cell line growth inhibition, 48 h
Property: TGI

// known answers, use as guide
- CC(C)(C)[C@H]1NC(=O)CN1C(=O)OCc1ccccc1: > 100 µM
- CC(=O)CCN1CC2CN=NC2(C#N)C1 (stereo not drawn): > 100 µM

Now turn to the next compound.
Reported TGI of c1ccc(CN2CCC(CNc3ncnc4ccccc34)C2)cc1 (stereo not drawn) : > 100 µM

====

# System: NCI/ADR-RES ovarian
# Assay comment: NCI tumour cell line growth inhibition, 48 h
I'd appreciate it if you could supply GI50 values for the items below.

// known answers, use as guide
- COc1ccc(C2CC(c3cccc(Nc4ccncc4)c3)=NN2c2ccccc2)cc1 (stereo not given): 1.74 µM
- c1ccc(-c2nc3ccccc3[nH]2)c(OCCCCCOc2ccccc2-c2nc3ccccc3[nH]2)c1: 5.74 µM
- COc1ccc2cc1Oc1ccc(cc1)CC1c3c(cc(OC)c4c3Oc3cc5c(cc3O4)CCNC5C2)CCN1C (stereo not given): 1.55 µM
- O=C([CH-]C(=O)c1ccccc1)c1ccccc1.[CH2-]C.[CH2-]C.[Tl+3]: 26.1 µM

Now turn to the next compound.
Reported GI50 of Cc1nc2sc(C(=O)Nc3cccc(Cl)c3)c(N)c2cc1C(O)c1ccccc1 (stereo not given) : 0.929 µM

====

# Test system: MOLT-4 leukemia
# Assay comment: NCI tumour cell line growth inhibition, 48 h
Property: TGI

- CC1(C)O[C@@H](CCl)C[C@@H](C#N)O1: > 100 µM
- CCOC(=O)CSc1nc(-c2ccc(Cl)cc2)c(C#N)c(=O)[nH]1: > 100 µM

Now turn to the next molecule.
Reported TGI of CN(C)CCC(/C=C/c1ccccc1)=N\Nc1c(F)c(F)c(F)c(F)c1F : > 100 µM

====

# Tested on: IGROV1 ovarian
# Assay comment: NCI tumour cell line growth inhibition, 48 h
Property: TGI

# map each compound to its TGI
1. CC1=NN(c2cc(Cl)c(S(=O)(=O)O)cc2Cl)C2(C1)C(Cl)C(=O)N2c1nc2ccccc2s1 (stereo unspecified)
2. CCOC(=O)/C=C(/OCC)[C@@H]1C(C(=O)c2ccc(Cl)cc2)[C@@H]1/C(=C\C(=O)OCC)OCC (stereo partly specified)
3. O=C1Cc2c([nH]c3ccccc23)-c2cc(Br)ccc2N1
4. CCOC(=O)NCC(=O)NCC(=O)NCC(N)=O

> 100 µM
> 100 µM
> 100 µM
> 100 µM

# map each compound to its TGI
1. COc1ccc(/C=C2\N=C3N(Cc4ccccc4)C=C(N)N3C2=O)cc1
2. FC(F)(Sc1ncccn1)c1nc2ccccc2o1
3. O=C(NCCOC(=O)CCCCCCCCC(=O)OCCNC(=O)NC(=O)c1cn(Cc2ccccc2)c(=O)[nH]c1=O)NC(=O)c1cn(Cc2ccccc2)c(=O)[nH]c1=O

> 100 µM
> 100 µM
> 100 µM

# map each compound to its TGI
1. CN(C)CC(=O)N1CCc2c([nH]c3ccccc23)C1c1cccnc1 (stereo unspecified)
2. Nc1ccc2c3c1cccc3c(=O)n1c3ccc(Cc4ccc5c(c4)nc4c6ccc(N)c7cccc(c(=O)n54)c76)cc3nc21
3. Cc1cc(C)c(C2=NO[C@@H]3[C@H]2C(=O)C=C2N(Cc4ccccc4)CCO[C@@]23O)c(C)c1
4. N=C(N)c1ccc(N=Nc2c(O)c(C(=O)Nc3ccccc3)cc3ccccc23)cc1

1. > 100 µM
2. > 100 µM
3. > 100 µM
4. > 74.6 µM
